These data points were gathered from the CombiSolv-Exp solvation set (Vermeire and Green 2021).

Assay: solvent given as SMILES
Conditions: in CC(=O)O
Overview of reported solvation free energy, 298 K across a group of compounds:
Give the value, in units of kcal/mol, as a plain number.

C1CCCCC1 -3.23

// query Given the entry CC(C)CC(C)C , report its measured solvation free energy, 298 K.
// result -3.06

// query Please give the measured solvation free energy, 298 K for this compound: Cc1ccccc1
// result -4.57

// query Given c1ccccc1 , state its recorded solvation free energy, 298 K.
// result -3.94

// query Report solvation free energy, 298 K for CCCC(C)C please.
// result -2.72

###

Form field: solvation free energy, 298 K (one value per entry).
Test: solvent given as SMILES
Conditions: in CCCCCCC
The answer is to be given in kcal/mol; state only the numeric part.

molecule	solvation free energy, 298 K / kcal/mol
S=C=S	-3.33
C1CCCCC1	-4.2
O=O	0.64
O=C1c2ccccc2C(=O)c2c(Cl)cccc21	-12.3
Cc1ccccc1	-4.74

// query Request the reported solvation free energy, 298 K associated with CCCCCCN
// result -5.51

// query What does the record list as solvation free energy, 298 K for CCC(C)(C)O ?
// result -3.85

// query What value of solvation free energy, 298 K has been recorded for this entry: CN(C)C(=O)Nc1ccc(Cl)cc1
// result -9.75

// query Data request, read-out solvation free energy, 298 K, for CCCCCO
// result -4.48

// query Report solvation free energy, 298 K for Clc1ccccc1Cl please.
// result -6.01

// query GET /values?readout=solvation free energy, 298 K&item= O=[N+]([O-])c1ccccc1
// result -6.14

// query What value of solvation free energy, 298 K has been recorded for this entry: II
// result -4.66

// query Quick one: solvation free energy, 298 K of Brc1ccccc1 ?
// result -5.72

// query Query: solvation free energy, 298 K; subject: CCCCCCC(C)O (centres undefined)
// result -5.86

// query Can you look up the measured solvation free energy, 298 K of CCCCCCC(C)=O for me?
// result -5.68

// query Which solvation free energy, 298 K is listed for C=CCCC ?
// result -3.15

// query Record request: solvation free energy, 298 K value, item CCC[N+](=O)[O-]
// result -3.97

// query What value of solvation free energy, 298 K has been recorded for this entry: CCCCCCCO
// result -5.59

// query Item CC(C)CC(=O)CC(C)C has what recorded solvation free energy, 298 K?
// result -6.13

// query Suppose we examine the molecule CC[N+](=O)[O-] ; what solvation free energy, 298 K value has been reported?
// result -3.34

// query Name the reported solvation free energy, 298 K value associated with the molecule CCCCCCCCCCCCc1ccccc1
// result -11.8

// query Which solvation free energy, 298 K value belongs to CCCCCC(C)=O ?
// result -5.22

// query Quick one: solvation free energy, 298 K for O=[N+]([O-])c1cc(Cl)ccc1Cl ?
// result -7.77

// query Given the molecule CCCCOC(C)=O , what is its reported solvation free energy, 298 K?
// result -4.92

// query Could you tell me which solvation free energy, 298 K is on file for COc1ccccc1 ?
// result -5.35

###

Reported solvation free energy, 298 K values for a set of molecules
Assay: solvent given as SMILES
Conditions: in COCCO
Provide only the numeric value, understood in kJ/mol.

Here's what some known entries look like.
Cc1ccccc1C -22
C1=CCCCC1 -14.6
Cc1ccc(C)cc1 -21.2

// query Need solvation free energy, 298 K of Fc1ccccc1 , thanks.
// result -18.4

// query What value of solvation free energy, 298 K has been recorded for this entry: c1ccccc1
// result -16.8
